molecular target: T1, TAMRA-labeled α-synuclein peptide; test: fluorescence polarization; conditions: chain shown with the change;; parent: est. 13 x10^7 M^-1; read off a plot
T1 chain: GYQDYEPEA
Attribute: Ka

N2.12 VHH G49A (protein) QGQLVESGGGSVQAGGSLRLSCAASGIDSSSYCMGWFRQRPGKEREGVARINGWRGIKTAYADSVKDRFTISRDNAENTVYLQMNSLKPEDTAIYYCAAKSSPGYCGGTWSNFGYWGQGTQVTVSS :: 13 x10^7 M^-1

Q) Give recorded Ka. N2.12 VHH S96F (protein) QGQLVESGGGSVQAGGSLRLSCAASGIDSSSYCMGWFRQRPGKEREGVGRINGWRGIKTAYADSVKDRFTISRDNAENTVYLQMNSLKPEDTAIYYCAAKFSPGYCGGTWSNFGYWGQGTQVTVSS
A) 6.7 x10^7 M^-1
